Test Target: T1, cynomolgus complement C3b protein (cynomolgus monkey (Macaca fascicularis))
T1 construct: also called cyno C3b; cynoC3b
Method Description: SPR (Biacore T100), C3b captured by anti-C3d antibody, IgG as analyte, 1:1 model
Measurement Name: pKd
Please note pKd is a logarithmic value: minus log10 of concentration in mol/L. Answer with that number alone.

query: pKd lookup needed for MOR09612 IgG (antibody, V domains shown, Germlined human IgG1 with leucines 234 and 235 changed to alanines, kappa; also called antibody 9612) VH: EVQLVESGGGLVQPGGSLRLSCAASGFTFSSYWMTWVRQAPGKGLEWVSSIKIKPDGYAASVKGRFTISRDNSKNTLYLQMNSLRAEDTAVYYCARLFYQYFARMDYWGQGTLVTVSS VL: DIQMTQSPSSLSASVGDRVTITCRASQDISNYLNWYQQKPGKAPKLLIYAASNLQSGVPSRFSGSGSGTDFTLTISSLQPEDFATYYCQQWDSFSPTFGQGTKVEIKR , thanks.
result: 10.60
